# System: B16
# TEST PROTOCOL: Antiproliferative activity against mouse B16 cells after 72 hrs MTT assay
# Format: functional, cell-based
# SETUP CONDITIONS: B16, 72 h
PROPERTY NAME: pIC50
Worth noting: pIC50 values are minus log10 of concentrations stated in mol/L.

Bench note: what pIC50 did C=C(C)[C@@H]1CC[C@]2(C(=O)O)CC[C@]3(C)[C@H](CC[C@@H]4[C@@]5(C)C[C@H](O)[C@H](O)[C@@](C)(CO)[C@@H]5CC[C@]43C)[C@@H]12 show?
4.43

Please give the result for C=CCOC(=O)[C@]12CC[C@@H](C(=C)C)[C@@H]1[C@H]1CC[C@@H]3[C@@]4(C)CCC(=O)[C@@](C)(CO)[C@@H]4CC[C@@]3(C)[C@]1(C)CC2 too.
4.93

And what about the compound C=C(C)[C@@H]1CC[C@]2(C(=O)O)CC[C@]3(C)[C@H](CC[C@@H]4[C@@]5(C)C=C(OC(C)=O)C(=O)[C@@](C)(COC(C)=O)[C@@H]5CC[C@]43C)[C@@H]12 ?
4.82

Now try C=C(C)[C@@H]1CC[C@]2(C(=O)OCc3ccc(-c4ccccc4C#N)cc3)CC[C@]3(C)[C@H](CC[C@@H]4[C@@]5(C)CCC(=O)[C@@](C)(CO)[C@@H]5CC[C@]43C)[C@@H]12 .
5.00

Another compound: C=C(C)[C@@H]1CC[C@]2(C(=O)O)CC[C@]3(C)[C@H](CC[C@@H]4[C@@]5(C)CC/C(=N\NS(=O)(=O)c6ccc(C)cc6)[C@@](C)(CO)[C@@H]5CC[C@]43C)[C@@H]12
4.48
